- METHOD DESCRIPTION: Growth inhibition of human HLF cells after 72 hrs by MTT assay
- Format: cell-based
REPORTED PROPERTY: GI50 at 72 h

# SMILES INPUT, REPORTED PROPERTY, MEASURED RESULT
data = [
    ("COC1=C(OC)C(=O)C(CCCCCCCCCCN2CCN(CCCCCCCCCCC3=C(C)C(=O)C(OC)=C(OC)C3=O)CC2)=C(C)C1=O", "GI50 at 72 h", "> 20 µM"),
]

Prompt: In one line, give reported GI50 at 72 h of the entry COC1=C(C)C(=O)C(CCCCCCCCCCN2CCCN(CCCCCCCCCCC3=C(C)C(=O)C(OC)=C(C)C3=O)CC2)=C(C)C1=O .
Response: > 20 µM

Prompt: // Input: COC1=C(OC)C(=O)C(CCCCCCCCCCN2CCCN(CCCCCCCCCCC3=C(C)C(=O)C(OC)=C(OC)C3=O)CC2)=C(C)C1=O . Output its GI50 at 72 h only.
Response: > 20 µM

Prompt: Note GI50 at 72 h for the compound shown: COC1=C(C)C(=O)C(CCCCCCCCCCN2CCN(CCCCCCCCCCC3=C(C)C(=O)C(OC)=C(C)C3=O)CC2)=C(C)C1=O
Response: > 20 µM

Prompt: Kindly indicate its recorded GI50 at 72 h. Item: COC1=C(C)C(=O)C(CCCCCCCCCCN(C)CCN(C)CCCCCCCCCCC2=C(C)C(=O)C(OC)=C(C)C2=O)=C(C)C1=O
Response: > 20 µM

* * *

- Test system: HCT-116
- METHOD DESCRIPTION: Growth inhibition of human HCT116 cells by MTT assay
Listed next: entries and their corresponding log10 GI50.
Note: values are log10 of GI50 expressed in µM.

Previously resolved entries follow.
# SMILES INPUT, REPORTED PROPERTY, MEASURED RESULT
rows = [
    ("COC1=C(OC)C(=O)C(CCCCCCCCCCN2CCCN(C(=O)c3ccc(-c4ccccc4)cc3)CC2)=C(C)C1=O", "log10 GI50", 0.99),
    ("CC1=C(C)C(=O)C(CCCCCCCCCCN2CCN(CCCCCCCCCCC3=C(C)C(=O)C(C)=C(C)C3=O)CC2)=C(C)C1=O", "log10 GI50", -0.92),
    ("CCCCCCCCCC[C@H](O)COCCOC[C@@H](O)CCCCCCCCCCCCC1=C[C@H](C)OC1=O", "log10 GI50", -1.05),
]

Next compound, log10 GI50 to be filled in.
Prompt: Using the record for CC1=C(CCCCCCCCCCN2CCCN(CCCCCCCCCCC3=C(C)C(=O)c4ccccc4C3=O)CC2)C(=O)c2ccccc2C1=O , state its measured log10 GI50.
Response: -0.89

* * *

- METHOD DESCRIPTION: Growth inhibition of human HLF cells by MTT assay
Entries annotated with measured GI50
Give the value, in units of µM, as a plain number.

Prompt: State its GI50 for this compound: CC1=C(C)C(=O)C(CCCCCCCCCCN2CCN(CCCCCCCCCCC3=C(C)C(=O)C(C)=C(C)C3=O)CC2)=C(C)C1=O
Response: 5.87

Prompt: Write down GI50 measured for item CCCCCCCCCC[C@H](O)COCCOC[C@@H](O)CCCCCCCCCCCCC1=C[C@H](C)OC1=O
Response: 2.62

* * *

- METHOD DESCRIPTION: Growth inhibition of human 16HBE cells after 72 hrs by MTT assay
- Format: cell-based, 16HBE14o-
Under this convention, Fulfilled denotes GI50 at 72 h strictly below 3 µM and Not fulfilled denotes GI50 at 72 h at or above 3 µM.

// below: answered compounds
# SMILES INPUT, LABEL CLASS
data = [
    ("COC1=C(OC)C(=O)C(CCCCCCCCCCN2CCCN(C(=O)c3ccc(-c4ccccc4)cc3)CC2)=C(C)C1=O", "Not fulfilled"),
    ("COC1=C(C)C(=O)C(CCCCCCCCCCN2CCN(CCCCCCCCCCC3=C(C)C(=O)C(OC)=C(C)C3=O)CC2)=C(C)C1=O", "Not fulfilled"),
    ("CC1=C(C)C(=O)C(CCCCCCCCCCN2CCCN(C(=O)c3ccc(-c4ccccc4)cc3)CC2)=C(C)C1=O", "Not fulfilled"),
]

Prompt: Is it true that GI50 at 72 h reported for CC1=C(CCCCCCCCCCN2CCCN(CCCCCCCCCCC3=C(C)C(=O)c4ccccc4C3=O)CC2)C(=O)c2ccccc2C1=O is less than 3 µM?
Response: Fulfilled

Prompt: Quick check: GI50 at 72 h of COC1=C(C)C(=O)C(CCCCCCCCCCN2CCCN(CCCCCCCCCCC3=C(C)C(=O)C(OC)=C(C)C3=O)CC2)=C(C)C1=O under 3 µM?
Response: Not fulfilled

Prompt: State whether 3 µM exceeds GI50 at 72 h recorded for COC1=C(C)C(=O)C(CCCCCCCCCCN2CCCN(C(=O)c3ccc(-c4ccccc4)cc3)CC2)=C(C)C1=O .
Response: Not fulfilled

Prompt: Given the entry COC1=C(C)C(=O)C(CCCCCCCCCCN(C)CCN(C)CCCCCCCCCCC2=C(C)C(=O)C(OC)=C(C)C2=O)=C(C)C1=O , would its reported GI50 at 72 h be below 3 µM?
Response: Not fulfilled

Prompt: Bench note: check whether CC1=C(C)C(=O)C(CCCCCCCCCCN2CCCN(CCCCCCCCCCC3=C(C)C(=O)C(C)=C(C)C3=O)CC2)=C(C)C1=O shows GI50 at 72 h below 3 µM
Response: Not fulfilled

Prompt: Report whether reported GI50 at 72 h is lower than 3 µM (strictly) for O=C1C=C(CCCCCCCCCCN2CCCN(C(=O)c3ccc(-c4ccccc4)cc3)CC2)C(=O)c2ccccc21
Response: Not fulfilled

Prompt: Bench note: check whether COC1=C(OC)C(=O)C(CCCCCCCCCCN2CCCN(CCCCCCCCCCC3=C(C)C(=O)C(OC)=C(OC)C3=O)CC2)=C(C)C1=O shows GI50 at 72 h below 3 µM
Response: Fulfilled

* * *

- METHOD DESCRIPTION: Growth inhibition of human 16HBE cells by MTT assay
Documented GI50 across a set of compounds
Respond numerically; units are µM and should not be typed.

# SMILES INPUT, GI50 (µM)
rows = [
    ("CC1=C(C)C(=O)C(CCCCCCCCCCN2CCCN(C(=O)c3ccc(-c4ccccc4)cc3)CC2)=C(C)C1=O", 7.97),
    ("CC1=C(CCCCCCCCCCN2CCCN(C(=O)c3ccc(-c4ccccc4)cc3)CC2)C(=O)c2ccccc2C1=O", 12.4),
    ("COC1=C(C)C(=O)C(CCCCCCCCCCN2CCCN(C(=O)c3ccc(-c4ccccc4)cc3)CC2)=C(C)C1=O", 9.76),
]

Then this compound:
Prompt: # return recorded GI50 for input CC1=C(CCCCCCCCCCN2CCN(CCCCCCCCCCC3=C(C)C(=O)c4ccccc4C3=O)CC2)C(=O)c2ccccc2C1=O
Response: 4.15

* * *

- METHOD DESCRIPTION: Growth inhibition of human HLF cells by MTT assay
REPORTED PROPERTY: GI50 (µM)
Entry rule: numbers only, all in µM.

# MOLECULE, GI50 / µM
records = [
    ("COc1cccc2c1C(=O)c1c(O)c3c(c(O)c1C2=O)C[C@@](O)(C(=O)CO)C[C@@H]3O[C@H]1C[C@H](N)[C@H](O)[C@H](C)O1 [DOXORUBICIN]", 0.33),
]

Now consider a different molecule.
Prompt: Identify GI50 associated with the molecule COC1=C(C)C(=O)C(CCCCCCCCCCN2CCCN(CCCCCCCCCCC3=C(C)C(=O)C(OC)=C(C)C3=O)CC2)=C(C)C1=O
Response: 6.86

* * *

- Test system: HCT-116
- METHOD DESCRIPTION: Growth inhibition of human HCT116 cells after 72 hrs by MTT assay
- Format: functional
- MEASUREMENT PARAMETERS: HCT-116, 72 h
Criterion: GI50 strictly less than 1000 nM. Met: Met. Not met: Not met.

# SMILES INPUT, LABEL CLASS
rows = [
    ("CCCCCCCCCC[C@H](O)COCCOC[C@@H](O)CCCCCCCCCCCCC1=C[C@H](C)OC1=O", "Met"),
    ("COC1=C(OC)C(=O)C(CCCCCCCCCCN2CCN(CCCCCCCCCCC3=C(C)C(=O)C(OC)=C(OC)C3=O)CC2)=C(C)C1=O", "Not met"),
    ("COC1=C(OC)C(=O)C(CCCCCCCCCCN2CCCN(CCCCCCCCCCC3=C(C)C(=O)C(OC)=C(OC)C3=O)CC2)=C(C)C1=O", "Not met"),
]

Prompt: Is it true that GI50 reported for COC1=C(C)C(=O)C(CCCCCCCCCCN(C)CCN(C)CCCCCCCCCCC2=C(C)C(=O)C(OC)=C(C)C2=O)=C(C)C1=O is less than 1000 nM?
Response: Not met

Prompt: Lab log: compare recorded GI50 with 1000 nM; is it strictly lower for CC1=C(C)C(=O)C(CCCCCCCCCCN2CCCN(C(=O)c3ccc(-c4ccccc4)cc3)CC2)=C(C)C1=O ?
Response: Not met

Prompt: Threshold test, GI50 < 1000 nM: COC1=C(C)C(=O)C(CCCCCCCCCCN2CCN(C(=O)c3ccc(-c4ccccc4)cc3)CC2)=C(C)C1=O
Response: Not met

Prompt: GI50 under 1000 nM? Item: CC1=C(C)C(=O)C(CCCCCCCCCCN2CCCN(CCCCCCCCCCC3=C(C)C(=O)C(C)=C(C)C3=O)CC2)=C(C)C1=O
Response: Met

Prompt: Identify whether the molecule CC1=C(CCCCCCCCCCN2CCN(CCCCCCCCCCC3=C(C)C(=O)c4ccccc4C3=O)CC2)C(=O)c2ccccc2C1=O records GI50 below 1000 nM.
Response: Met
